System: NCI-H23
Experiment: NCI tumour cell line growth inhibition, 48 h
The source made the active and inactive calls. No stated cut-off is given here; in the data, active = GI50 up to about 1.1 µM and inactive = higher.
reported-property: GI50

Tell me GI50 reported for [O-][S+](Nc1ccccc1)c1ccc(N2CCOCC2)cc1 (stereo not given)
> 100 µM (inactive)

Tell me GI50 reported for Cc1c2cc[n+](C)cc2c(C)c2c1[nH]c1ccc(O)cc12 [ELLIPTINIUM ACETATE]
8.91 µM (inactive)

Tell me GI50 reported for `C[C@]12CC[C@H]3[C@@H](CCC4=C[C@@H](N5CCCC5)CC[C@@]43C)[C@@H]1C/C(=C\c1ccncc1)[C@@H]2O`
15.5 µM (inactive)

Tell me GI50 reported for `CCO/C=C1\N=C(c2ccccc2Br)OC1=O`
> 100 µM (inactive)

Tell me GI50 reported for `Cc1cc(C)n(-c2ccnc3cc(Cl)ccc23)n1`
> 100 µM (inactive)

Tell me GI50 reported for `CCN(CC)Cc1ccc2cccnc2c1O`
6.67 µM (inactive)

Tell me GI50 reported for `Cc1cccc(Cl)c1NC(=O)c1cccc([N+](=O)[O-])c1O`
28.1 µM (inactive)

Tell me GI50 reported for `COc1cc(C(=O)N(C)N(C)C)cc(OC)c1OC`
> 10 µM (inactive)

Tell me GI50 reported for COc1cccc(C2c3cc4c(cc3OC(NNc3ccccc3)C2C)OCO4)c1O (stereo not given)
10.1 µM (inactive)

Tell me GI50 reported for `Cc1ccc(/N=N/c2c(O)c3ccccc3[nH]c2=O)c(S(=O)(=O)N(C)C)c1`
> 100 µM (inactive)
